- System: IL-8-induced neutrophil shape change in human whole blood
- measurement-description: Whole blood neutrophil shape change assay (L)
- Assay type: cell-based
- condition-set: Homo sapiens, Neutrophil, IL-8, human whole blood, read-out: Assay L WBSC IC50
pIC50: −log10 of the molar value.
pIC50 below 6 gives Not met; pIC50 at or above it gives Met.

Query: Record `Cc1ccc(S(=O)(=O)NCC(C)(C)O)cc1-c1cnc(N)c(-n2cc(C)c(C)n2)n1` ; criterion: pIC50 no lower than 6. Met?
Response: Not met

Query: Record `Cc1ccc(S(=O)(=O)N2CC(CO)C2)cc1-c1cnc(N)c(-n2cncn2)n1` ; criterion: pIC50 no lower than 6. Met?
Response: Not met

Query: Record `Cc1ncc(-c2nc(-c3cc(S(=O)(=O)NCC(C)(C)CO)ccc3C)cnc2N)s1` ; criterion: pIC50 no lower than 6. Met?
Response: Met
